Origin of values: patent US10377770B2

# TARGET_UNDER_TEST: C-Raf FL (full length CRAF with Y340E and Y341E activating mutations, co-expressed with h14-3-3 zeta) (Homo sapiens (Human), UniProt P04049, Y340E/Y341E)
# Sequence (P04049 whole entry Y340E/Y341E): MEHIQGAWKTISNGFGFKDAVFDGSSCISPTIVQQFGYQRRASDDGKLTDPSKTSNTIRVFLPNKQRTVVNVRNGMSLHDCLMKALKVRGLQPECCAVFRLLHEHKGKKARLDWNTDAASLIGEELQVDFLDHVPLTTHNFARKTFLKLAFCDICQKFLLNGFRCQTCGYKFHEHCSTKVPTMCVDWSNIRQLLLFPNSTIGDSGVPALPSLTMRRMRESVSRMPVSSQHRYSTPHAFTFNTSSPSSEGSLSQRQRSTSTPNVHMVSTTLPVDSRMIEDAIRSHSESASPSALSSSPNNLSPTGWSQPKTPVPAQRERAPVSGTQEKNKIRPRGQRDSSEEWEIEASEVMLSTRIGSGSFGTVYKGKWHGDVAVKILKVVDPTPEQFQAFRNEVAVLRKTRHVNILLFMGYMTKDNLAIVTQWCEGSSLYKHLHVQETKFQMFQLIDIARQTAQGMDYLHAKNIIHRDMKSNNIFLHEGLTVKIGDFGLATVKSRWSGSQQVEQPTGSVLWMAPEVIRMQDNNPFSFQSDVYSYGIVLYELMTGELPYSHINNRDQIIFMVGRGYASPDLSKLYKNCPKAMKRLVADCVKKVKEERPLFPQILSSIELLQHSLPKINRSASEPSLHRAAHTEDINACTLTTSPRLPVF
# Sequence (P63104 whole entry partner): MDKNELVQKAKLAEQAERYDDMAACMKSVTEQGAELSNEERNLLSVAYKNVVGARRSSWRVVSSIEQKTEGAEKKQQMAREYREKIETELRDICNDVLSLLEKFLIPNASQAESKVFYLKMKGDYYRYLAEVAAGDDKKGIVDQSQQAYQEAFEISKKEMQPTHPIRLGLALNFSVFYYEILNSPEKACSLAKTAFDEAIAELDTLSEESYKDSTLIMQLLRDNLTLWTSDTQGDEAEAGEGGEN
# ASSAY_TEXT: In vitro Raf activity determination, AlphaScreen p-MEK readout, c-Raf (C-Raf FL)
# ASSAY_CONTEXT: c-Raf approximately 4 nM, ATP 1 μM, pre-incubation 60 minutes, reaction 1 hour
OBSERVED_PROPERTY: IC50 (nM)
Answer format: numeric, nM implied, no suffix.

Looking for the measured IC50 of Cc1ncc(NC(=O)c2cccc(C(F)(F)F)c2)cc1-c1ccc2c(c1)N1CCOCC[C@H]1C[C@@H]2O , can you help? 0.5

Field request: IC50 | item: CCN1C(=O)CC2CCOCCN2c2cc(-c3cc(NC(=O)c4cccc(C(F)(F)F)c4)cnc3C)cnc21 (centres unmarked) 1.7

Returns the measured IC50 for the input molecule. Input: Cc1ccc(NC(=O)c2ccnc(C(F)(F)F)c2F)cc1-c1cnc2c(c1)[C@@H]1CCOC[C@H]1C(=O)N2CCO 0.1

Value lookup for IC50; key = Cc1ccc(NC(=O)c2ccnc(C(C)(F)F)c2)cc1-c1ccc2c(c1)N1CCOC[C@@H]1[C@](C)(C#N)C2 0.2

I have this molecule here, CCN1C(=O)C[C@@H]2COCCN2c2cc(-c3cc(NC(=O)c4cnnc(C(F)(F)F)c4)ccc3C)cnc21 , and I need its recorded IC50. 0.1

What value of IC50 has been reported for the following molecule? CCNC(=O)C1Cc2ccc(-c3cc(NC(=O)c4ccnc(C(C)(F)F)c4)ccc3C)cc2N2CCOCC12 (racemic) 0.28

For the molecule Cc1ccc(NC(=O)c2ccnc(C(C)(F)F)c2)cc1-c1cnc2c(c1)C1CCOCC1OC(=O)N2CCO (centres unmarked) , what IC50 is on record? 2.1

What does the data say about its IC50? Entry: CCN1C(=O)[C@@H]2COCC[C@H]2c2cc(-c3cc(NC(=O)c4ccnc(C(F)(F)F)c4F)ccc3C)cnc21 3.2

Please report the recorded IC50 for Cc1ccc(NC(=O)c2ccnc(C(C)(F)F)c2)cc1-c1ccc2c(c1)N1CCOC[C@@H]1[C@@](CO)(CF)C2 . 0.1

Quick one: IC50 for CCN1C(=O)N2COCCC2(C)c2cc(-c3cc(NC(=O)c4cccc(C(F)(F)F)c4)cnc3C)ccc21 (centres unmarked) [Example 243] ? 0.6

Query (molecule): Cc1ccc(NC(=O)c2ccnc(C(F)(F)F)c2)cc1-c1cnc2c(c1)N1CCOC[C@H]1C[C@H]2C ; field requested: IC50 0.1

// returns reported IC50 for input Cc1ccc(NC(=O)c2cc(C(F)(F)F)ccn2)cc1-c1cnc2c(c1)N1CCOCC1C(CO)(CO)C2 (racemic) 0.0068

Reported IC50 for Cc1ccc(NC(=O)c2ccnc(C(F)(F)F)c2F)cc1-c1ccc2c(c1)N1CCOC[C@H]1[C@@](F)(CO)C2 : what is it? 0.2

====

# TARGET_UNDER_TEST: C-Raf FL (full length CRAF with Y340E and Y341E activating mutations, co-expressed with h14-3-3 zeta) (Homo sapiens (Human), UniProt P04049, Y340E/Y341E)
# ASSAY_TEXT: In vitro Raf activity determination, AlphaScreen p-MEK readout, c-Raf (C-Raf FL)
# ASSAY_CONTEXT: c-Raf approximately 4 nM, ATP 1 μM, pre-incubation 60 minutes, reaction 1 hour
OBSERVED_PROPERTY: IC50 (nM)
Number in nM, nothing else.

# IC50 lookup, item Cc1ncc(NC(=O)c2ccnc(C(C)(C)F)c2)cc1-c1ccc2c(c1)N1CCOCC[C@H]1C[C@@H]2O 0.7

# lookup: IC50 of Cc1ccc(NC(=O)c2cncc(C(F)(F)F)c2)cc1-c1cc2c(cc1F)C[C@](F)(CO)[C@@H]1COCCN21 0.7

Which measured IC50 value corresponds to CCN1C[C@H]2COCCN2c2cc(-c3cc(NC(=O)c4ccnc(C(C)(F)F)c4)ccc3C)cnc2C1=O ? 0.6

Given the entry CNC[C@@H]1Cc2ncc(-c3cc(NC(=O)c4ccnc(C(F)(F)F)c4)ccc3C)cc2N2CCOC[C@@H]12 , report its measured IC50. 0.4

Given Cc1ccc(NC(=O)c2ccnc(C(C)(C)C#N)c2)cc1-c1cnc2c(c1)N1CCOC[C@H]1C[C@@H]2O (racemic) , state its recorded IC50. 0.013

Query: IC50; subject: CO[C@@H]1C[C@@H]2COCCN2c2cc(-c3cc(NC(=O)c4ccnc(C(C)(F)F)c4)cnc3C)ccc21 (racemic) 0.033

Can you look up the measured IC50 of Cc1ccc(NC(=O)c2cncc(C(F)(F)F)c2)cc1-c1ccc2c(c1)N1CCOC[C@H]1[C@](F)(CF)C2 for me? 1.8
